Target: Orexin/Hypocretin receptor type 1 (Homo sapiens) (UniProt O43613)
Sequence (O43613 whole entry, looked up): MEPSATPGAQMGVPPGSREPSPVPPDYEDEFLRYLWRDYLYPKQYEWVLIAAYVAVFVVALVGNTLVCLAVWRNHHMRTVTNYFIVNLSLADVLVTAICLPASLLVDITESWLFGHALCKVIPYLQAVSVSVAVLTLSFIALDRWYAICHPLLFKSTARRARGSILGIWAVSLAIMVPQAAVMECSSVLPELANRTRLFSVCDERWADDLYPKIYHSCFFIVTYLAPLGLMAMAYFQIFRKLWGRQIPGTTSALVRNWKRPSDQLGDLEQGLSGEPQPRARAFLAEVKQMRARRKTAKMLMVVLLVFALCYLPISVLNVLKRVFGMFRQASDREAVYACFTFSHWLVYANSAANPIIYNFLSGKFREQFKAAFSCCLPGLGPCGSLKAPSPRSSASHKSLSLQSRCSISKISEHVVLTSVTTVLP
Test: HCRTR1 antagonism, orexin A-evoked calcium – fluorescence, Fluo-8, CHO cells, powder samples, late-stage follow-up (AID 624409)
Conditions: CHO/OX1R cells, Fluo-8 calcium fluorescence
Calls of active or inactive are those of the source.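 The calls were made as follows: active = IC50 at or below 10 µM; inactive = IC50 above 10 µM.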
Could you please pick one outcome from this set? active, inactive

Example entries begin here.
O=C(CSc1ccc(-c2ccccc2)nn1)c1cccs1 :: active
CSc1cccc(NC(=O)C2CCCN2S(=O)(=O)c2ccc(Br)s2)c1 (stereo unspecified) :: active
CCOc1ccccc1C(=O)Nc1ccc2nc3n(c(=O)c2c1)CCCCC3 :: inactive
CCc1cc(C(=O)OCC(=O)N2CCC(c3ccccc3)=N2)sc1C :: inactive
COc1cccc(/C=C2/Oc3ccccc3N(CC(=O)NCC3CCCO3)C2=O)c1 (stereo unspecified) :: active

Query block: Please state the recorded outcome for this compound: `COc1cc(OC)c(-c2nc3ccccc3s2)cc1OC`
Result block: inactive

Query block: What about this compound? `CC(=C/c1ccccc1)/C=C1/SC(N2CCOCC2)=NC1=O`
Result block: active

Query block: What about this compound? COc1ccc(OC)c(S(=O)(=O)NCC(c2ccco2)N2CCc3ccccc32)c1 (stereo unspecified)
Result block: active

----------
Target: Orexin/Hypocretin receptor type 1 (Homo sapiens)
Assay: HCRTR1 antagonism, orexin A-evoked calcium – fluorescence, Fluo-8, CHO cells, powder samples, late-stage follow-up (AID 624409)
Details: CHO/OX1R cells, Fluo-8 calcium fluorescence
Activity calls are given as the source filed them.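 How the source made its calls: active means IC50 at or below 10 µM; inactive means IC50 above 10 µM.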
So I've got a bunch of molecules here, and I need their IC50 values.

The following molecules have reported results that may help.
Fc1cccc(Nc2nc3ccccc3n3cnnc23)c1 :: > 59.6 µM (inactive)
O=c1cc(CN2CC(O)Cc3ccc4ccccc4c32)nc2sccn12 (stereo not drawn) :: > 19.9 µM (inactive)

Moving on to the next molecule.
Query block: Param item = `CN(N=Cc1cc([N+](=O)[O-])ccc1O)c1ccccc1` ; retrieve measured IC50.
Result block: > 59.6 µM (inactive)
